Reported Minimal inhibitory concentration (MIC) values are given for each entry in this list.
# Test system: Aspergillus furnigatus B. 19119
# Protocol notes: In vitro antifungal activity, microbroth dilution MIC
# Type: cell-based
# Test settings: A furnigatus B. 19119, RPMI-1640, 35° C., 4 to 48 hours
Lab book: enter the figure in µg/mL, no units written.

| Molecule | Minimal inhibitory concentration (MIC), µg/mL |
| --- | --- |
| FC(OCC1COC(Cn2ccnc2)(c2ccc(F)cc2F)O1)=C(c1cccs1)C(F)(F)F (mixture of isomers) [Ex. 68] | 1.56 |

[in] Note Minimal inhibitory concentration (MIC) for the molecule shown: Cc1cc(C)cc(C(=C(F)OCC2COC(Cn3ccnc3)(c3ccc(Cl)cc3Cl)O2)C(F)(F)F)c1 (stereo not shown) [Ex. 24]
[out] 50.0

[in] Give me measured Minimal inhibitory concentration (MIC), please, for this molecule: Cc1cc(C)cc(C=C(F)OCC2COC(Cn3ccnc3)(c3ccc(Cl)cc3Cl)O2)c1 (stereo not shown) [Ex. 6]
[out] 6.25

[in] State its Minimal inhibitory concentration (MIC) for this molecule: FC(OCC1COC(Cn2ccnc2)(c2ccc(F)cc2F)O1)=C(c1cccc(F)c1)C(F)(F)F (mixture of isomers) [Ex. 65]
[out] 3.13

###

# Tested on: Candida krusei K. 11655
# Protocol notes: In vitro antifungal activity, microbroth dilution MIC
# Format: cell-based
# Test settings: RPMI-1640, 35° C., 4 to 48 hours, no growth observed
Reported metric: Minimal inhibitory concentration(MIC), C. krusei K. 11655

[in] Would you please give the reported Minimal inhibitory concentration(MIC), C. krusei K. 11655 of FC(=Cc1cccc(Cl)c1)Oc1ccc(OCC2COC(Cn3ccnc3)(c3ccc(Cl)cc3Cl)O2)cc1 (mixture of isomers) [Ex. 91] with Candida krusei K. 11655?
[out] >100 µg/mL

[in] Lab note: record Minimal inhibitory concentration(MIC), C. krusei K. 11655 of FC(=C(c1cccc(Cl)c1)C(F)(F)F)N1CCN(c2ccc(OCC3COC(Cn4ccnc4)(c4ccc(Cl)cc4Cl)O3)cc2)CC1 (mixture of isomers) [Ex. 133] tested on Candida krusei K. 11655.
[out] 1.56 µg/mL

[in] Recall the reported Minimal inhibitory concentration(MIC), C. krusei K. 11655 of FC(=C(c1ccc(Cl)cc1)C(F)(F)F)N1CCN(c2ccc(OCC3COC(Cn4ccnc4)(c4ccc(F)cc4F)O3)cc2)CC1 (mixture of isomers) [Ex. 149] on Candida krusei K. 11655 and write it down.
[out] 0.39 µg/mL

[in] Name the value of Minimal inhibitory concentration(MIC), C. krusei K. 11655 reported for Cc1cccc(C(=C(F)N2CCN(c3ccc(OCC4COC(Cn5ccnc5)(c5ccc(Cl)cc5Cl)O4)cc3)CC2)C(F)(F)F)c1 (mixture of isomers) [Ex. 125] when tested on Candida krusei K. 11655.
[out] >100 µg/mL

[in] Report Minimal inhibitory concentration(MIC), C. krusei K. 11655 under test system Candida krusei K. 11655 for COc1ccc(C(=C(F)OCC2COC(Cn3cncn3)(c3ccc(Cl)cc3Cl)O2)C(F)(F)F)cc1 (mixture of isomers) [Ex. 84] .
[out] >100 µg/mL

[in] Supply Minimal inhibitory concentration(MIC), C. krusei K. 11655 measured with Candida krusei K. 11655 for FC(Oc1ccc(OCC2COC(Cn3cncn3)(c3ccc(Cl)cc3Cl)O2)cc1)=C(c1ccccc1)C(F)(F)F (mixture of isomers) [Ex. 119] .
[out] >100 µg/mL

The values you see were collected from patent US6376497B1.
